Test system: PC-3 cell line
Experiment: Anticancer (cytotoxic) activity, MTT colorimetric assay
Assay type: cell-based
Details: Homo sapiens, PC-3, 48 h, compounds 1–30 μM, n = 3, read-out: IC50 ± SEM, Anticancer Activity (PC-3 Cell line)
Each entry below carries its recorded pIC50.
Scale for pIC50: -log10 of concentration given in mol/L; no unit attached.

{"Compound": "Cc1c(-c2cc[nH]n2)sc2sc(-c3cc[nH]n3)c(-c3ccccc3)c12", "Reported result": 4.65}

// next item, pIC50 requested
pIC50 measured on COc1cccc2c1C(=O)c1c(O)c3c(c(O)c1C2=O)C[C@@](O)(C(=O)CO)C[C@@H]3O[C@H]1C[C@H](N)[C@H](O)[C@H](C)O1 [Doxorubicin, reference compound] = 6.04
